B1: glmS ribozyme (parent)
chain: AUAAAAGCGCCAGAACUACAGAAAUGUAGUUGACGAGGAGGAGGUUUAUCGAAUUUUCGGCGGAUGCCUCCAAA

Variants of: B1
Assay: self-cleavage kobs at 2500 uM GlcN6P; higher = faster cleavage; RNA array
Conditions: with glucosamine-6-phosphate
Fewer inactive variants are shown than the library holds.
Listed next: entries and their corresponding self-cleavage kobs at 2500 uM GlcN6P.
Give the value, in units of s⁻¹, as a plain number.

Use the examples below as a reference point.
{"columns": ["MUTANT_ID", "self-cleavage kobs at 2500 uM GlcN6P, s⁻¹"],
 "data": [
  ["G44C C67U", 0.00109],
  ["C8G A36G G38A A52G U65G U69G", "5.4e-05"],
  ["U47A C67G", 0.000379]
]}

Read the next record carefully.
Exam item: Bench note: what self-cleavage kobs at 2500 uM GlcN6P did C16G A42G A53G C67G show?
Marked response: 0.000323
